src = patent US7998940B2

Tested on: full length human vWF binding to lyophilized platelets
assayProtocol: Full length human von Willebrand Factor platelet binding assay (FACS)
Format: cell-based
conditionParameters: 5 nM full length human vWF, lyophilized platelets, botrocetin; read-out: Inhibition of full length hVWF binding in FACS assay, Average IC50

molecule	IC50
AMX238.E9: DNA SELEX 2 aptamer clone (nucleic acid, DNA, backbone not given here, DNA SELEX 2 aptamer clone) DNA: CTACCTACGATCTGACTAGCGTGCAGTGCCCATCTTAGGCCGTGCGGTGCCTCCGTCACGCTTACTCTCATGTAGTTCC	3.4 nM
AMX238.G5: DNA SELEX 2 aptamer clone (nucleic acid, DNA, backbone and methylation of C not given here, DNA SELEX 2 aptamer clone) DNA: CTACCTACGATCTGACTAGCTCCAGTGTTTTATTCAATAACCGTGCGGTGCCTCCGTGAGCTTACTCTCATGTAGTTCC	1.1 nM
